meta.source: patent US9695132B2

- test system: UniProt P22455
- test: Omnia assay for potency assessment against FGFR4 enzyme
- Assay type: biochemical
- run conditions: method b: [FGFR4-WT]=2.5 nM (SignalChem), [ATP]=250 uM, [Y10-Sox]=10 uM
pIC50: −log10 of the molar value.
Property: pIC50; scope: individual compounds

Take a look at these entries with their results.
C=CC(=O)Nc1cc(N(C)CCOC)ccc1Nc1ncc2c(n1)N(Cc1ccccc1)C(=O)N(c1cc(OC)cc(OC)c1)C2 [Compound I-13]: 6.30 to 7.00
C=CC(=O)Nc1cc(OCCOC)ccc1Nc1ncc2c(n1)N(Cc1ccccc1)C(=O)N(c1cc(OC)cc(OC)c1)C2 [Compound I-14]: > 7.00

Query: May I ask what pIC50 has been recorded for C=CC(=O)Nc1ccccc1Nc1ncc2c(n1)N(C1CC1)C(=O)N(c1c(Cl)c(OC)cc(OC)c1Cl)C2 [Compound I-23] ?
Response: > 7.00

Query: May I ask what pIC50 has been recorded for CCC(=O)Nc1ccccc1Nc1ncc2c(n1)N(C)C(=O)N(c1c(Cl)c(OC)cc(OC)c1Cl)C2 [Compound I-235] ?
Response: 6.30 to 7.00

----------
- test system: FGFR4 in MDA-MB-453 cells (Homo sapiens, UniProt P22455)
- test: Target occupancy assay with biotinylated covalent probe I-127
measure: EC50

Take a look at these entries with their results.
CCC(=O)Nc1cccc(CN2C(=O)N(c3c(Cl)c(OC)cc(OC)c3Cl)Cc3cnc(Nc4ccccc4NC(=O)CC)nc32)c1 [Compound I-234]: > 1000 nM
C=CC(=O)NC1CCCCC1Nc1ncc2c(n1)N(Cc1ccccc1)C(=O)N(c1c(Cl)c(OC)cc(OC)c1Cl)C2 (racemic) [Compound I-63]: 101 to 500 nM
C=CC(=O)Nc1ccccc1Nc1ncc2c(n1)N(Cc1cccc(F)c1)C(=O)N(c1c(Cl)c(OC)cc(OC)c1Cl)C2 [Compound I-12]: 101 to 500 nM

Query: May I ask what EC50 has been recorded for C=CC(=O)NC1CCCCC1Nc1ncc2c(n1)N(Cc1cccnc1)C(=O)N(c1c(Cl)c(OC)cc(OC)c1Cl)C2 (racemic) [Compound I-35] ?
Response: 101 to 500 nM

Query: May I ask what EC50 has been recorded for CCC(=O)Nc1ccccc1Nc1ncc2c(n1)N(Cc1ccccc1)C(=O)N(c1c(Cl)c(OC)cc(OC)c1Cl)C2 [Compound I-236] ?
Response: > 1000 nM

Query: May I ask what EC50 has been recorded for C=CC(=O)Nc1ccccc1Nc1ncc2c(n1)N(Cc1ccccc1)C(=O)N(c1c(Cl)c(OC)cc(OC)c1Cl)C2 [Compound I-3] ?
Response: < 100 nM

----------
- test system: FGFR4-WT (Homo sapiens (Human), UniProt P22455)
- Sequence (P22455 22-802): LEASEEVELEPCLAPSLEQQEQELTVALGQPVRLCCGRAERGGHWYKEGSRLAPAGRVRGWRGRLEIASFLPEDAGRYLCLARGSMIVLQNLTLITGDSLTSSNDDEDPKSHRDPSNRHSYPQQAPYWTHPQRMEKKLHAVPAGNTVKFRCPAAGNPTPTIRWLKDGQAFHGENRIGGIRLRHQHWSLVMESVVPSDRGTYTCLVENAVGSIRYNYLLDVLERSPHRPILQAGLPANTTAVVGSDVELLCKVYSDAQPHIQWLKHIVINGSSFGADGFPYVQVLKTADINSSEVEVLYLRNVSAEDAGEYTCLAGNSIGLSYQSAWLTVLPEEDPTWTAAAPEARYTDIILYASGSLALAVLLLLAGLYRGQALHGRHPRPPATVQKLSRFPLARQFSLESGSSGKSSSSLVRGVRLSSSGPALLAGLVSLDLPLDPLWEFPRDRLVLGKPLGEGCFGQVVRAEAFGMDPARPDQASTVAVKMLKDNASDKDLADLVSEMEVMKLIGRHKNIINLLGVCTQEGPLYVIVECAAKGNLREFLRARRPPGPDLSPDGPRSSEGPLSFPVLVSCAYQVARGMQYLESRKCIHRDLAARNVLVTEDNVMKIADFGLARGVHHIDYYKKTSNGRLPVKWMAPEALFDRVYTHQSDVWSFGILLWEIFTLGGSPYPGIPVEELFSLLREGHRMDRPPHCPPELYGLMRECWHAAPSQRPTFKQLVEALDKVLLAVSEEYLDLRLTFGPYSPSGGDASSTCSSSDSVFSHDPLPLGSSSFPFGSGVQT
- test: Omnia assay for potency assessment against FGFR4 enzyme
- Assay type: biochemical
- run conditions: method a: [FGFR4-WT]=10 nM (Invitrogen), [ATP]=300 uM, [Y10-Sox]=10 uM
pIC50: −log10 of the molar value.
Property: pIC50; scope: individual compounds

C=CC(=O)Nc1ccccc1Nc1ncc2c(n1)N(CC1CC1)C(=O)N(c1c(Cl)c(OC)cc(OC)c1Cl)C2: > 7.00

Query: May I ask what pIC50 has been recorded for "C=CC(=O)N[C@H]1COC[C@H]1Nc1ncc2c(n1)N(C)C(=O)N(c1c(Cl)c(OC)cc(OC)c1Cl)C2" ?
Response: > 7.00

Query: May I ask what pIC50 has been recorded for "C=CC(=O)Nc1ccccc1Nc1ncc2c(n1)NC(=O)N(c1cc(OC)cc(OC)c1)C2" ?
Response: 6.30 to 7.00

Query: May I ask what pIC50 has been recorded for "C=CC(=O)Nc1cc(-c2nnnn2C)ccc1Nc1ncc2c(n1)N(C)C(=O)N(c1c(Cl)c(OC)cc(OC)c1Cl)C2" ?
Response: > 7.00
